Source listed as patent US7179825B2.

System: metabolism of retinoic acid in human breast cancer cells
Assay: Inhibition of retinoic acid (RA) metabolism (Example C.1)
Assay type: cell-based
Settings: MCF-7 human breast cancer cells, 3H-RA as substrate; concentration needed to reduce the amount of metabolites to 50% of the control
readout.type: IC50 (nM)

[[record]]
compound = "CC(C)C(c1ccc(NC(=O)c2cccc3ccccc23)cc1)n1ccnc1 (stereo not shown)"
reading = 13.1

[[record]]
compound = "COc1ccc(CC(=O)Nc2ccc(C(C(C)CN3CCCCC3)n3ccnc3)cc2)cc1OC (single isomer, unassigned)"
reading = 0.0567

[[record]]
compound = "CC(C(c1ccc(NC(=O)Cc2ccc(Cl)cc2)cc1)n1ccnc1)N1CCCCC1 (single isomer, unassigned)"
reading = 3.05


[a] CCN(C)C(C)C(c1ccc(NC(=O)Cc2ccc(OC)c(OC)c2)cc1)n1ccnc1 (single isomer, unassigned)
[b] CCC(CC)C(c1ccc(NC(=O)Cc2ccc(Cl)cc2OC)cc1)n1ccnc1 (racemic)
[c] COc1ccc(CC(=O)Nc2ccc(C(C(C)N(C)CCc3ccccc3)n3ccnc3)cc2)cc1OC (mixture of isomers)
[d] CCC(CC)C(c1ccc(NC(=O)C2CCc3ccccc3O2)cc1)n1ccnc1 (stereo not shown)
Place the items in sequence of falling IC50. Put the labels in the requested order and write them down.
d, c, b, a
(d: 8.12 nM, c: 2.64 nM, b: 0.852 nM, a: 0.367 nM)

[1] CCC(CC)C(c1ccc(NC(=O)Cc2ccc(O)cc2)cc1)n1ccnc1 (racemic)
[2] CC(=Cc1ccccc1)C(=O)Nc1ccc(C(c2ccccc2)n2ccnc2)cc1 (racemic)
// compare: 1 vs 2 , metric IC50, want the smaller Refer to your chosen entry by its label in the reply.
1

[A] CCC(CC)C(c1ccc(NC(C)=O)cc1)n1cncn1 (stereo not shown)
[B] CC(C)C(c1ccc(NC(=O)C2CCCC2)cc1)n1ccnc1 (racemic)
[C] O=C(Cc1ccc(Cl)cc1)Nc1ccc(C2(n3ccnc3)CCC2)cc1
[D] Cc1cnc(C(=O)Nc2ccc(C(C(C)C)n3ccnc3)cc2)cn1 (racemic)
[E] CC(C(c1ccc(NC(=O)Cc2ccc(O)c(Cl)c2)cc1)n1cncn1)N(C)C (mixture of isomers) [Compound 299]
Please put the entries in order of rising IC50. Put the labels in the requested order and write them down.
A, E, B, C, D
(A: 0.138 nM, E: 0.772 nM, B: 3.34 nM, C: 5.27 nM, D: 82.8 nM)

[P] CC(C)C(c1ccc(NC(=O)c2ccc3nccnc3c2)cc1)n1ccnc1 (stereo not shown)
[Q] CC(C)C(c1ccc(NC(=O)C(=Cc2ccccc2)c2ccccc2)cc1)n1ccnc1 (stereo not shown)
// compare: P vs Q , metric IC50, want the smaller Refer to your chosen entry by its label in the reply.
P

====

Test system: metabolism of retinoic acid in human breast cancer cells
Assay: Inhibition of retinoic acid (RA) metabolism (Example C.1)
Assay type: cell-based
Conditions: MCF-7 human breast cancer cells, 3H-RA as substrate; concentration needed to reduce the amount of metabolites to 50% of the control
readout.type: IC50 (nM)

Here is how some compounds turned out for IC50.
[[record]]
compound = "CC(C)C(c1ccc(NC(=O)Cc2ccc(Cl)cc2)cc1)(C(C)C)n1ccnc1"
reading = 5.62

[[record]]
compound = "CC(C)C(c1ccc(NC(=O)c2ccc(Br)o2)cc1)n1ccnc1 (racemic)"
reading = 1.48

[[record]]
compound = "CCOc1ccc(CC(=O)Nc2ccc(C(C(C)N(C)C)n3cncn3)cc2)cc1OCC (single isomer, unassigned)"
reading = 6.53


[A] CC(C)C(c1ccc(NC(=O)/C=C/c2ccccc2)cc1)n1cncn1 (racemic)
[B] CC(C(c1ccc(NC(=O)Cc2ccc(Cl)cc2)cc1)n1ccnc1)N(C)C (single isomer, unassigned) [Compound 367]
[C] CC(C)C(c1ccc(NC(=O)Nc2cccc3ccccc23)cc1)n1ccnc1 (racemic)
[D] CCOc1ccc(C(=O)Nc2ccc(C(C(CC)CC)n3ccnc3)cc2)cc1 (racemic)
[E] CC(C)C(c1ccc(NC(=O)C(C)(C)O)cc1)n1ccnc1 (racemic)
Place the items in sequence of falling IC50. Put the labels in the requested order and write them down.
E, A, C, D, B

[I] CC(C)Oc1ccc(CC(=O)Nc2ccc(C(C(C)N(C)C)n3ccnc3)cc2)cc1 (single isomer, unassigned)
[II] CCC(CC)C(c1ccc(NC(=O)Cc2cc(C)ccc2C)cc1)n1ccnc1 (racemic)
Which item exceeds the other in IC50, I or II ? Refer to your chosen entry by its label in the reply.
I
(I: 4.06 nM, II: 1.69 nM)

[1] CC(C)C(c1ccc(NC(=O)Nc2ccc3c(c2)OCCO3)cc1)n1ccnc1 (racemic)
[2] CC(C)C(c1ccc(NC(=O)C2COc3ccccc3C2)cc1)n1ccnc1 (mixture of isomers)
Which item exceeds the other in IC50, 1 or 2 ? Refer to your chosen entry by its label in the reply.
1

[a] CC(C)C(c1ccc(NC(=O)Cc2ccc(O)cc2)cc1)n1ccnc1 (stereo not shown)
[b] CCCCCC(C)C(c1ccc(NC(=O)Cc2ccc(OC)c(OC)c2)cc1)n1ccnc1 (single isomer, unassigned)
[c] CC(C)C(c1ccc(NC(=O)Nc2cccc(F)c2)cc1)n1ccnc1 (racemic)
Please put the entries in order of rising IC50. Put the labels in the requested order and write them down.
c, a, b
